These data points were gathered from patent US10208045B2.

Data export: IC50 values recorded with UniProt:P15659.

Reported IC50 of CC#Cc1cn([C@@H](c2ccccc2)[C@H]2CN(C)C(=O)c3c(O)c(=O)cnn32)nc1C#CC : 250 to 1000 nM

Reported IC50 of CN1C[C@H]([C@@H](c2ccccc2)n2cc(I)c(I)n2)n2ncc(=O)c(O)c2C1=O : < 250 nM

Reported IC50 of C#Cc1cccc([C@@H](c2ccccc2)[C@H]2CN(C(C)C)C(=O)c3c(O)c(=O)cnn32)c1 : < 250 nM

Reported IC50 of CCn1cc([C@@H](c2ccccc2)[C@H]2CN(C)C(=O)c3c(O)c(=O)cnn32)c2ccc(CO)cc21 : ≥ 1000 nM

Reported IC50 of CC(C)OC(=O)OCOc1c2n(ncc1=O)[C@@H](C1c3cccc(F)c3CCc3c(F)cccc31)CN(C(C)C)C2=O : < 250 nM

Reported IC50 of C#Cc1cccc(C(c2cccc(C#C)c2)C2CN(C(C)C)C(=O)c3c(O)c(=O)cnn32)c1 (stereo not shown) : < 250 nM

Reported IC50 of CCCN1C[C@@H](C2c3ccccc3CCc3ccccc32)n2ncc(=O)c(O)c2C1=O : 250 to 1000 nM
